Test system: ryegrass, Italian
Assay: Test C pre-/postemergence herbicide test
Assay type: in vivo, Lolium multiflorum
Details: Postemergence; 250 g ai/ha; scale 0 to 100 (0 no effect, 100 complete control)
compounds and their reported Plant response rating, Ryegrass, Italian

// known answers, use as guide
COMPOUND: O=C1NCC(c2cc(F)c(F)c(F)c2)C1C(=O)Nc1ccccc1F (racemic) [Compound 34]
Plant response rating, Ryegrass, Italian: 0
//
COMPOUND: O=C1NCC(c2cccc(Cl)c2)C1C(=O)Nc1cccc(F)c1F (racemic) [Compound 275]
Plant response rating, Ryegrass, Italian: 25
//
COMPOUND: O=C1NCC(c2cc(F)cc(F)c2)C1C(=O)Nc1ccc(F)cc1F (racemic) [Compound 278]
Plant response rating, Ryegrass, Italian: 0
//
COMPOUND: O=C1NCC(c2cc(F)cc(F)c2)C1C(=O)Nc1cccc(F)c1F (racemic) [Compound 279]
Plant response rating, Ryegrass, Italian: 0

Kindly consider the entry below.
stdin: Look at this compound and give its reported Plant response rating, Ryegrass, Italian. O=C1NCC(c2ccc(F)c(C(F)(F)F)c2)C1C(=O)Nc1ccccc1F (racemic) [Compound 76]
stdout: 5

----------
System: giant foxtail
Assay: Test A pre-/postemergence herbicide test
Assay type: in vivo, Setaria faberii
Conditions: Preemergence, 125 g ai/ha; 0 to 100 scale where 0 is no effect and 100 is complete control
molecules and their reported Plant response rating, Foxtail, Giant
Lab note: record the figure alone, no unit after it.

MOLECULE: O=C1NCC(c2ccc(C(F)(F)F)c(F)c2)C1C(=O)Nc1cccc(F)c1F (racemic)
Plant response rating, Foxtail, Giant: 80

stdin: Look at this molecule and give its reported Plant response rating, Foxtail, Giant. O=C1NCC(c2cc3ccccc3s2)C1C(=O)Nc1cccc(F)c1F (stereo not shown)
stdout: 0

stdin: Look at this molecule and give its reported Plant response rating, Foxtail, Giant. O=C1NCC(c2ccc(OC(F)F)cc2)C1C(=O)Nc1ccccc1C(F)(F)F (stereo not shown)
stdout: 90

stdin: Look at this molecule and give its reported Plant response rating, Foxtail, Giant. O=C1NCC(c2cc3ccccc3o2)C1C(=O)Nc1ccccc1F (racemic)
stdout: 10

stdin: Look at this molecule and give its reported Plant response rating, Foxtail, Giant. O=C1NCC(c2cccc(C(F)(F)F)c2)C1C(=O)Nc1cccc(Cl)c1F (stereo not shown)
stdout: 80

stdin: Look at this molecule and give its reported Plant response rating, Foxtail, Giant. O=C1NCC(c2cc3ccccc3s2)C1C(=O)Nc1ccccc1C(F)(F)F (stereo not shown)
stdout: 30

stdin: Look at this molecule and give its reported Plant response rating, Foxtail, Giant. O=C1NCC(c2cccc(I)c2)C1C(=O)Nc1ccccc1C(F)(F)F (stereo not shown)
stdout: 80

----------
molecules and their reported Oilseed Rape plant response rating
Test system: oilseed rape
Test: Test C pre-/postemergence herbicide test
Type: in vivo, Brassica napus
Conditions: Preemergence, 31 g ai/ha; scale 0 to 100, 0 is no effect and 100 is complete control
Lab note: record the figure alone, no unit after it.

// known answers, use as guide
MOLECULE: O=C1NCC(c2ccc(F)cc2)C1C(=O)Nc1cccc(F)c1F (racemic) [Compound 119]
Oilseed Rape plant response rating: 0
--
MOLECULE: CN1CC(c2ccc(F)cc2)C(C(=O)Nc2cccc(F)c2F)C1=O (centres unmarked) [Compound 271]
Oilseed Rape plant response rating: 0
--
MOLECULE: O=C1NCC(c2cccc(OC(F)F)c2)C1C(=O)Nc1ccccc1F (centres unmarked) [Compound 223]
Oilseed Rape plant response rating: 0
--
MOLECULE: O=C1NCC(c2cccc(C(F)(F)F)c2)C1C(=O)Nc1ccc(F)c(F)c1F (centres unmarked) [Compound 315]
Oilseed Rape plant response rating: 5

Kindly consider the entry below.
stdin: Look at this molecule and give its reported Oilseed Rape plant response rating. O=C1NCC(c2cccc(OC(F)F)c2)C1C(=O)Nc1ccc(F)c(F)c1F (centres unmarked) [Compound 325]
stdout: 0

Attribution: patent US10294202B2
